# system-under-test: BSA (Bos taurus, UniProt P02769)
# Construct: Bovine serum albumin (BSA; Fatty Acid/IgG/Protease-Free); purchased FUJIFILM Wako Pure Chemical Corporation, Ltd. (Osaka, Japan)
# Sequence (P02769 25-607): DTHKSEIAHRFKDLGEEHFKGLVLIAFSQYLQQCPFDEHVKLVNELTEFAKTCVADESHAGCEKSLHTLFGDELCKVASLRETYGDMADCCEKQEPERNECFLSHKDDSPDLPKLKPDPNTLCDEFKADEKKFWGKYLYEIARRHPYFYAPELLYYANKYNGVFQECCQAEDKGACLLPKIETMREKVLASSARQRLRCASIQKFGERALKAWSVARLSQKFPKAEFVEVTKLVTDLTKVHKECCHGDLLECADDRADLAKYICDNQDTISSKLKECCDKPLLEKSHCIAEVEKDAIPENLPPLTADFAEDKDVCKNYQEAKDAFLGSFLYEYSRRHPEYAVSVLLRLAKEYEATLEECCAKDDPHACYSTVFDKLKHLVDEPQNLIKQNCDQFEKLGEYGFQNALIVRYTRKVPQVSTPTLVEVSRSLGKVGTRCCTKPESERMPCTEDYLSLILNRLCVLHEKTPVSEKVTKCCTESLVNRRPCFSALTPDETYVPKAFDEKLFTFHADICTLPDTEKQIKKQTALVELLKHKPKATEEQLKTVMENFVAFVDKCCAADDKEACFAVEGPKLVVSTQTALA
# measurement-notes: Fluorescence quenching binding parameters between vitamin E and BSA
# Parameters: species or system bovine
# condition-info: 2.0 μM BSA, room temperature, excitation 280 nm, emission 340 nm; mean ± S.E. (n = 3); read-out: apparent binding constant (Ka) (converted)
quantity-measured: Kd (µM)

Item: Cc1cc(O)c(C)c2c1O[C@](C)(CCC[C@H](C)CCC[C@H](C)CCCC(C)C)CC2 | System: BSA (Bos taurus, UniProt P02769) | Kd: 95.2

CC(C)=CCC/C(C)=C/CC/C(C)=C/CC[C@]1(C)CCc2cc(O)c(C)c(C)c2O1 on BSA (Bos taurus, UniProt P02769) gives Kd = 62.1

Bench note, BSA (Bos taurus, UniProt P02769): Cc1c(C)c2c(c(C)c1O)CC[C@@](C)(CCC[C@H](C)CCC[C@H](C)CCCC(C)C)O2 , Kd reads 99

Simply: Cc1cc(O)cc2c1O[C@](C)(CCC[C@H](C)CCC[C@H](C)CCCC(C)C)CC2 , BSA (Bos taurus, UniProt P02769), Kd = 105

// Kd (BSA (Bos taurus, UniProt P02769)) for CC(C)=CCC/C(C)=C/CC/C(C)=C/CC[C@]1(C)CCc2c(C)c(O)c(C)c(C)c2O1 = 69.4

I = CC(C)=CCC/C(C)=C/CC/C(C)=C/CC[C@]1(C)CCc2c(C)c(O)cc(C)c2O1
II = Cc1c(O)cc2c(c1C)O[C@](C)(CCC[C@H](C)CCC[C@H](C)CCCC(C)C)CC2
Of I and II , which shows the smaller Kd value? Write down the label attached to your selection. I

###

# system-under-test: BSA (Bos taurus, UniProt P02769)
# Construct: Bovine serum albumin (BSA; Fatty Acid/IgG/Protease-Free); purchased FUJIFILM Wako Pure Chemical Corporation, Ltd. (Osaka, Japan)
# measurement-notes: Fluorescence quenching binding parameters between vitamin E and BSA
# Parameters: species or system bovine
# condition-info: 2.0 μM BSA, room temperature, excitation 280 nm, emission 340 nm; mean ± S.E. (n = 3)
quantity-measured: Stern–Volmer constant (Ksv)

# CC(C)=CCC/C(C)=C/CC/C(C)=C/CC[C@]1(C)CCc2cc(O)cc(C)c2O1 with BSA (Bos taurus, UniProt P02769): Stern–Volmer constant (Ksv) is 1.51 ± 0.02 × 10^4 M^−1

So the reported Stern–Volmer constant (Ksv) for Cc1cc(O)c(C)c2c1O[C@](C)(CCC[C@H](C)CCC[C@H](C)CCCC(C)C)CC2 , on BSA (Bos taurus, UniProt P02769), turned out to be 1.00 ± 0.02 × 10^4 M^−1

Tested on BSA (Bos taurus, UniProt P02769), the item Cc1c(C)c2c(c(C)c1O)CC[C@@](C)(CCC[C@H](C)CCC[C@H](C)CCCC(C)C)O2 showed Stern–Volmer constant (Ksv) equal to 0.93 ± 0.06 × 10^4 M^−1

Bench note, BSA (Bos taurus, UniProt P02769): CC(C)=CCC/C(C)=C/CC/C(C)=C/CC[C@]1(C)CCc2cc(O)c(C)c(C)c2O1 , Stern–Volmer constant (Ksv) reads 1.35 ± 0.01 × 10^4 M^−1

Field Stern–Volmer constant (Ksv) (system: BSA (Bos taurus, UniProt P02769)) for entry CC(C)=CCC/C(C)=C/CC/C(C)=C/CC[C@]1(C)CCc2c(C)c(O)cc(C)c2O1 = 1.39 ± 0.13 × 10^4 M^−1

---
The compound Cc1c(O)cc2c(c1C)O[C@](C)(CCC[C@H](C)CCC[C@H](C)CCCC(C)C)CC2 , tested on BSA (Bos taurus, UniProt P02769), showed Stern–Volmer constant (Ksv) of 0.82 ± 0.01 × 10^4 M^−1

So the reported Stern–Volmer constant (Ksv) for Cc1cc(O)cc2c1O[C@](C)(CCC[C@H](C)CCC[C@H](C)CCCC(C)C)CC2 , on BSA (Bos taurus, UniProt P02769), turned out to be 0.89 ± 0.04 × 10^4 M^−1

Query CC(C)=CCC/C(C)=C/CC/C(C)=C/CC[C@]1(C)CCc2c(C)c(O)c(C)c(C)c2O1 on BSA (Bos taurus, UniProt P02769); Stern–Volmer constant (Ksv) returned: 1.19 ± 0.07 × 10^4 M^−1
